- Test system: NCI-H460
- assay notes: NCI tumour cell line growth inhibition, 48 h
The source made the active and inactive calls. Rule as the data show it: active = GI50 up to about 1.1 µM and inactive = higher.
measurement name: GI50

molecule: COC(=O)C1(Cc2ccccc2)Cc2ccccc2C1=O (stereo not drawn)
result: 46 µM (inactive)

QUERY: Return GI50 measured with NCI-H460 given this molecule: O=c1[nH]c(=O)n(C2C(CO)OC(CO)C2O)cc1F (stereo not drawn)
RESULT: > 100 µM (inactive)

QUERY: Given the entry `COC(=O)C(CCC1(C)OCCO1)=[N+]=[N-]` , what GI50 was observed with NCI-H460?
RESULT: > 100 µM (inactive)

----------
- Tested on: SK-MEL-28
- assay notes: NCI tumour cell line growth inhibition, 48 h
Active and inactive are the calls of the source. Rule as the data show it: active = GI50 up to about 1.1 µM and inactive = higher.
The entries below come with measured GI50 values attached.

Worked cases, answers included:
compound: Cn1c(SCc2ccc(F)cc2)nnc1C12CC3CC(CC(C3)C1)C2
GI50: 24.3 µM (inactive)

compound: CO[P@@]1(=O)O[C@@H](c2ccccc2)[C@H](O)[C@@]1(O)c1ccccc1
GI50: > 100 µM (inactive)

compound: O=c1[nH]c(=O)n(C2CC(O)C(CO)O2)c2nc3ccc4cc5ccccc5cc4c3nc12 (stereo unspecified)
GI50: > 100 µM (inactive)

compound: CC(C)CCNC(=O)c1ccc(CNC(=O)/C=C/c2ccc(-c3ccccc3[N+](=O)[O-])o2)cc1
GI50: 16.6 µM (inactive)

compound: CN1CCN(CCCNN)CC1
GI50: > 100 µM (inactive)

QUERY: Given CC1CCCC(C(O)CC2CC(=O)NC(=O)C2)C1O (stereo unspecified) , state its recorded GI50.
RESULT: > 100 µM (inactive)
